target under test: T1, recombinant rat MASP1 active protease (amino acids 302-704, C-terminal His Tag) (rat, UniProt Q8CHN8 302-704)
T1 sequence: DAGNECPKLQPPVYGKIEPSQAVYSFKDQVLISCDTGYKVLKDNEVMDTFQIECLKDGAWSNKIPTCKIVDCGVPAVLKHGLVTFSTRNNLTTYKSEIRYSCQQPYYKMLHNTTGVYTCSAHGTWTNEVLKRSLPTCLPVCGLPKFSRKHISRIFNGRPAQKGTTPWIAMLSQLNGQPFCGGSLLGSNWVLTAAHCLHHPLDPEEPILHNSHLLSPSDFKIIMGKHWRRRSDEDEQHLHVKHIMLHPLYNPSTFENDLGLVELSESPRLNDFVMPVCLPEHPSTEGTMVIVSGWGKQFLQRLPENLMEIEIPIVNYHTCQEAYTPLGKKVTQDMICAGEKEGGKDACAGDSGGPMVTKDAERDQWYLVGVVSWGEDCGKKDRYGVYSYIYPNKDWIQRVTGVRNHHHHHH
protocol details: cell-based or functional assay
Bridge positions count the residues as written; N and C are the ends. Square brackets hold non-standard residues; d marks the D form. Ends that are not written are not given here. tBuAla = CC(C)(C)C[C@H](N)C(=O)O; Pen = CC(C)(S)[C@H](N)C(=O)O; Orn = NCCC[C@H](N)C(=O)O; Sar = CNCC(=O)O
observation type: rat MASP1 IC50 (nM)
Note: unit nM is implicit; provide only the numeric part.

Entry [Sar]ICSRS[tBuAla]PPI[Pen]IP[Orn]D-OH (disulfide 3-11; N-terminus assumed; SMILES CC[C@H](C)[C@H](NC(=O)CNC)C(=O)N[C@H]1CSSC(C)(C)[C@@H](C(=O)N[C@H](C(=O)N2CCC[C@H]2C(=O)N[C@@H](CCCN)C(=O)N[C@@H](CC(=O)O)C(=O)O)[C@@H](C)CC)NC(=O)[C@H]([C@@H](C)CC)NC(=O)[C@@H]2CCCN2C(=O)[C@@H]2CCCN2C(=O)[C@H](CC(C)(C)C)NC(=O)[C@H](CO)NC(=O)[C@H](CCCNC(=N)N)NC(=O)[C@H](CO)NC1=O) [Example 486: ((N-Me)G)-IC+SRS-((tBu)A)-PPI-(Pen)+IP-(Orn)-D-OH] , rat MASP1 IC50 reported as 69
